System: P. aeruginosa strain MP-3
Assay: Broth dilution MIC determination (CLSI) against P. aeruginosa strain MP-3
Format: cell-based
Conditions: Pseudomonas aeruginosa, MP3
Could you please report measured MIC for the items listed next?

Input CC[C@H]1OC(=O)C(C)C(=O)[C@H](C)[C@@H](OC2OC(CN3CCOCC3)CC(N(C)C)C2O)[C@](C)(OC)C[C@@H](C)CN[C@H](C)[C@H]2NC(=O)O[C@@]21C (stereo partly drawn) . Output MIC: ≥ 32 µg/mL

Input CC[C@H]1OC(=O)C(C)C(=O)[C@H](C)[C@@H](OC2OC(CNC34CC(C3)C4)CC(N(C)C)C2O)[C@](C)(OC)C[C@@H](C)CN[C@H](C)[C@H]2NC(=O)O[C@@]21C (stereo partly drawn) . Output MIC: ≥ 32 µg/mL

Input CC[C@H]1OC(=O)C(C)C(=O)[C@H](C)[C@@H](O[C@@H]2O[C@H](CN(C)C(=O)CNC)CC(N(C)C)[C@H]2O)[C@](C)(OC)C[C@@H](C)CN[C@H](C)[C@H]2NC(=O)O[C@@]21C (stereo partly drawn) . Output MIC: ≥ 32 µg/mL
